These data points were gathered from ChEMBL document CHEMBL3864166.

Recorded Ratio IC50 values for a group of compounds are listed next.
Tested on: DU-145
Assay: Selectivity ratio of IC50 for human DU145 cells to IC50 for human MDA-MB-231 cells
Type: functional
assay-endpoint: Ratio IC50

compound: CN1CCN(c2cccc(NC(=O)C3C/C(=C\c4ccc(F)cc4)C(=O)/C(=C/c4ccc(F)cc4)C3)c2)CC1 (centres undefined)
system-tested: DU-145
readout-value: 7.6

compound: CN1CCN(c2ccc(NC(=O)C3C/C(=C\c4ccc(F)cc4)C(=O)/C(=C/c4ccc(F)cc4)C3)cc2)CC1 (centres undefined)
system-tested: DU-145
readout-value: 5.4

compound: COc1ccc(/C=C2\CC(C(=O)Nc3cccc(N4CCN(C)CC4)c3)C/C(=C\c3ccc(OC)cc3)C2=O)cc1 (centres undefined)
system-tested: DU-145
readout-value: 3

compound: CCN(CC)CCNC(=O)C1C/C(=C\c2ccc(F)cc2)C(=O)/C(=C/c2ccc(F)cc2)C1 (centres undefined)
system-tested: DU-145
readout-value: 2.9

---

Assay: Antiproliferative activity against human DU145 cells after 48 hrs by MTT assay
Type: functional, cell-based
Conditions: DU-145, 48 h
# IC50 values compiled below
assay-endpoint: IC50 (µM)

compound: COc1ccc(/C=C2\CC(C(=O)N3CCN(C)CC3)C/C(=C\c3ccc(OC)cc3)C2=O)cc1 (stereo not drawn)
value-unit: µM
sign: =
readout-value: 17.6

compound: CCN(CC)CCNC(=O)C1C/C(=C\c2ccc(OC)cc2)C(=O)/C(=C/c2ccc(OC)cc2)C1 (stereo not drawn)
value-unit: µM
sign: =
readout-value: 6.89

compound: CCN(CC)CCNC(=O)C1C/C(=C\c2ccc(OC)c(O)c2)C(=O)/C(=C/c2ccc(OC)c(O)c2)C1 (stereo not drawn)
value-unit: µM
sign: >
readout-value: 20

compound: CCN(CC)CCNC(=O)C1C/C(=C\c2ccccc2)C(=O)/C(=C/c2ccccc2)C1 (stereo not drawn)
value-unit: µM
sign: =
readout-value: 4.41

compound: CCN(CC)CCNC(=O)C1C/C(=C\c2ccc(F)cc2)C(=O)/C(=C/c2ccc(F)cc2)C1 (stereo not drawn)
value-unit: µM
sign: =
readout-value: 1.63

compound: COc1cc(/C=C/C(=O)CC(=O)/C=C/c2ccc(O)c(OC)c2)ccc1O
value-unit: µM
sign: =
readout-value: 44.7

compound: COc1ccc(/C=C2\CC(C(=O)Nc3cccc(N4CCN(C)CC4)c3)C/C(=C\c3ccc(OC)c(O)c3)C2=O)cc1O (stereo not drawn)
value-unit: µM
sign: =
readout-value: 8.29

compound: COc1ccc(/C=C2\CC(C(=O)Nc3ccc(N4CCN(C)CC4)cc3)C/C(=C\c3ccc(OC)cc3)C2=O)cc1 (stereo not drawn)
value-unit: µM
sign: =
readout-value: 7.03

---

Tested on: DU-145
Test: Selectivity ratio of IC50 for human DU145 cells to IC50 for human MDA-MB-231 cells
Format: functional
assay-endpoint: Ratio IC50

compound: CN1CCN(c2cccc(NC(=O)C3C/C(=C\c4ccccc4)C(=O)/C(=C/c4ccccc4)C3)c2)CC1 (stereo unspecified)
readout-value: 4.9
--
compound: CCN(CC)CCNC(=O)C1C/C(=C\c2ccccc2)C(=O)/C(=C/c2ccccc2)C1 (stereo unspecified)
readout-value: 7
--
compound: COc1ccc(/C=C2\CC(C(=O)N3CCN(C(C)=O)CC3)C/C(=C\c3ccc(OC)cc3)C2=O)cc1 (stereo unspecified)
readout-value: 3
--
compound: CCN(CC)CCNC(=O)C1C/C(=C\c2ccc(OC)cc2)C(=O)/C(=C/c2ccc(OC)cc2)C1 (stereo unspecified)
readout-value: 1.8
--
compound: COc1ccc(/C=C2\CC(C(=O)N3CCN(C)CC3)C/C(=C\c3ccc(OC)cc3)C2=O)cc1 (stereo unspecified)
readout-value: 3.2
--
compound: COc1ccc(/C=C2\CC(C(=O)Nc3cccc(N4CCN(C)CC4)c3)C/C(=C\c3ccc(OC)c(O)c3)C2=O)cc1O (stereo unspecified)
readout-value: 5.2
